# MEASURED_TARGET: human CD137 on primary human CD8+ T cells (human, UniProt Q07011 24-255)
# Sequence (Q07011 24-255): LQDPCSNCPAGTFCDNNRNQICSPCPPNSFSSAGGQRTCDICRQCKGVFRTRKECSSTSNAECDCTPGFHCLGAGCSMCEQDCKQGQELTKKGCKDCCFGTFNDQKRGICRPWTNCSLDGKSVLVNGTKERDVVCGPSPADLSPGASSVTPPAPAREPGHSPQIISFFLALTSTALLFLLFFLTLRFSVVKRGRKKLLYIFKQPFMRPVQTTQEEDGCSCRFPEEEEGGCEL
# ASSAY: cell-based or functional assay
MEASURED_METRIC: IL-2 release EC50, NCI-H226 co-culture, Donor B (nM)

{"BINDER": "FS22-172-003-AA/FS28-024-051 (bispecific antibody, human IgG1, kappa, L234A L235A, V domains shown, IgG1 mAb^2 with LALA) VH: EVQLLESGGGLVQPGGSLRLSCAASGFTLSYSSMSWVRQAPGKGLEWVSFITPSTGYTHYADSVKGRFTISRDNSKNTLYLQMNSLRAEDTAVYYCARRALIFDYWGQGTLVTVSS VL: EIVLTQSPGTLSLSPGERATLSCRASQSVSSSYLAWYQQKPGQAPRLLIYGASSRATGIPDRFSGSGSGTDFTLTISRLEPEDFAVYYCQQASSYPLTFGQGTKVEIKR", "MEASUREMENT_UNIT": "nM", "QUANTITATIVE_READOUT": 0.04}
{"BINDER": "FS22-172-003-AA/FS28-024-060 (bispecific antibody, human IgG1, kappa, L234A L235A, V domains shown, IgG1 mAb^2 with LALA) VH: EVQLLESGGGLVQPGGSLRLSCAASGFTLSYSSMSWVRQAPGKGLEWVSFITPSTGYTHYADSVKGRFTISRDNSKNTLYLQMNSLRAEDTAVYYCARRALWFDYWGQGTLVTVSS VL: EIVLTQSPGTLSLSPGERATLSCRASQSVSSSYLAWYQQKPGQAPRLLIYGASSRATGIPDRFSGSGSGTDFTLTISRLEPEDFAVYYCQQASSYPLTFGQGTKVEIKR", "MEASUREMENT_UNIT": "nM", "QUANTITATIVE_READOUT": 0.06}
{"BINDER": "FS22-172-003-AA/FS28-256-018 (bispecific antibody, human IgG1, kappa, L234A L235A, V domains shown, IgG1 mAb^2 with LALA) VH: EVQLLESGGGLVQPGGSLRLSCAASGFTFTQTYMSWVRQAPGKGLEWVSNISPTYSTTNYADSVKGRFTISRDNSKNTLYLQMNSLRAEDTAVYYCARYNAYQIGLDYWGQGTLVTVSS VL: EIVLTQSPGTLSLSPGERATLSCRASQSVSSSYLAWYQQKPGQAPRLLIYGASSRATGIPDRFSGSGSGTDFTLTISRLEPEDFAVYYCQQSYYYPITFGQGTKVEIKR", "MEASUREMENT_UNIT": "nM", "QUANTITATIVE_READOUT": 3.71}
